System: HEK293
TEST_NAME: Antiproliferative activity against HEK293 cells at upto 80 uM by MTT assay
Format: cell-based
CONDITIONS_USED: human
RESULT_TYPE: Activity

[[record]]
smiles_structure = "COC(=O)CC[C@@H](C)[C@H]1CC[C@H]2[C@@H]3[C@H](O)C[C@@H]4C[C@@H](NC(=O)CNC(=O)CNC(=O)CNC(=O)CNC(=O)OC(C)(C)C)CC[C@]4(C)[C@H]3C[C@H](O)[C@]12C"
value_observed = "Non-toxic"

[[record]]
smiles_structure = "CC(=O)OCCC[C@@H](C)[C@H]1CC[C@H]2[C@@H]3[C@H](OC(C)=O)C[C@@H]4C[C@@H](NC(=O)CNC(=O)CNC(=O)CNC(=O)CN)CC[C@]4(C)[C@H]3C[C@H](O)[C@]12C"
value_observed = "Non-toxic"


###

Recorded IC50 by entry
Test system: HEK293
TEST_NAME: Antiproliferative activity against HEK293 cells by MTT assay
Format: cell-based
CONDITIONS_USED: Homo sapiens
RESULT_TYPE: IC50 (µM)

[[record]]
molecule = "C[C@H](CCC(=O)O)[C@H]1CC[C@H]2[C@@H]3[C@H](O)C[C@@H]4C[C@@H](NC(=O)CCNC(=O)CCNC(=O)CCNC(=O)CCN)CC[C@]4(C)[C@H]3C[C@H](O)[C@]12C"
target_under_test = "HEK293"
result_type = "IC50"
value_units = "µM"
qualifier = ">"
value_observed = 1000

[[record]]
molecule = "CC(CCC(=O)O)C1CCC2C3C(O)CC4CC(NC(=O)CCNC(=O)CCNC(=O)CCNC(=O)CCNC(=O)OC(C)(C)C)CCC4(C)C3CC(O)C12C (centres undefined)"
target_under_test = "HEK293"
result_type = "IC50"
value_units = "µM"
qualifier = ">"
value_observed = 1000

[[record]]
molecule = "C[C@H](CCCO)[C@H]1CC[C@H]2[C@@H]3[C@H](O)C[C@@H]4C[C@@H](NC(=O)CCNC(=O)CCNC(=O)CCNC(=O)CCNC(=O)OC(C)(C)C)CC[C@]4(C)[C@H]3C[C@H](O)[C@]12C"
target_under_test = "HEK293"
result_type = "IC50"
value_units = "µM"
qualifier = "="
value_observed = 800

[[record]]
molecule = "COC(=O)CC[C@@H](C)[C@H]1CC[C@H]2[C@@H]3[C@H](O)C[C@@H]4C[C@@H](NC(=O)CNC(=O)CNC(=O)CNC(=O)CNC(=O)OC(C)(C)C)CC[C@]4(C)[C@H]3C[C@H](O)[C@]12C"
target_under_test = "HEK293"
result_type = "IC50"
value_units = "µM"
qualifier = "="
value_observed = 600

[[record]]
molecule = "C[C@H](CCC(=O)O)[C@H]1CC[C@H]2[C@@H]3[C@H](O)C[C@@H]4C[C@H](O)CC[C@]4(C)[C@H]3C[C@H](O)[C@]12C"
target_under_test = "HEK293"
result_type = "IC50"
value_units = "µM"
qualifier = ">"
value_observed = 1000

[[record]]
molecule = "C[C@H](CCCO)[C@H]1CC[C@H]2[C@@H]3[C@H](O)C[C@@H]4C[C@@H](NC(=O)CCNC(=O)CCNC(=O)CCNC(=O)CCN)CC[C@]4(C)[C@H]3C[C@H](O)[C@]12C"
target_under_test = "HEK293"
result_type = "IC50"
value_units = "µM"
qualifier = "="
value_observed = 800

[[record]]
molecule = "CC(=O)OCCC[C@@H](C)[C@H]1CC[C@H]2[C@@H]3[C@H](OC(C)=O)C[C@@H]4C[C@@H](NC(=O)CNC(=O)CNC(=O)CNC(=O)CN)CC[C@]4(C)[C@H]3C[C@H](O)[C@]12C"
target_under_test = "HEK293"
result_type = "IC50"
value_units = "µM"
qualifier = "="
value_observed = 800

[[record]]
molecule = "CC(=O)OCCC[C@@H](C)[C@H]1CC[C@H]2[C@@H]3[C@H](OC(C)=O)C[C@@H]4C[C@@H](NC(=O)CNC(=O)CNC(=O)CNC(=O)CNC(=O)OC(C)(C)C)CC[C@]4(C)[C@H]3C[C@H](O)[C@]12C"
target_under_test = "HEK293"
result_type = "IC50"
value_units = "µM"
qualifier = "="
value_observed = 200

[[record]]
molecule = "COC(=O)CC[C@@H](C)[C@H]1CC[C@H]2[C@@H]3[C@H](O)C[C@@H]4C[C@@H](NC(=O)CNC(=O)CNC(=O)CNC(=O)CN)CC[C@]4(C)[C@H]3C[C@H](O)[C@]12C"
target_under_test = "HEK293"
result_type = "IC50"
value_units = "µM"
qualifier = "="
value_observed = 80


###

Tested on: Staphylococcus aureus
TEST_NAME: Antibacterial activity at Staphylococcus aureus
Type: functional
RESULT_TYPE: MIC (µg/mL)

[[record]]
compound = "C[C@H](CCC(=O)O)[C@H]1CC[C@H]2[C@@H]3[C@H](O)C[C@@H]4C[C@H](O)CC[C@]4(C)[C@H]3C[C@H](O)[C@]12C [CHOLIC ACID]"
value_units = "µg/mL"
qualifier = ">"
value_observed = 128

[[record]]
compound = "CC(=O)OCCC[C@@H](C)[C@H]1CC[C@H]2[C@@H]3[C@H](OC(C)=O)C[C@@H]4C[C@@H](NC(=O)CNC(=O)CNC(=O)CNC(=O)CN)CC[C@]4(C)[C@H]3C[C@H](O)[C@]12C"
value_units = "µg/mL"
qualifier = "="
value_observed = 64

[[record]]
compound = "CC[C@H]1OC(=O)[C@H](C)[C@@H](O[C@H]2C[C@@](C)(OC)[C@@H](O)[C@H](C)O2)[C@H](C)[C@@H](O[C@@H]2O[C@H](C)C[C@H](N(C)C)[C@H]2O)[C@](C)(O)C[C@@H](C)C(=O)[C@H](C)[C@@H](O)[C@]1(C)O [ERYTHROMYCIN]"
value_units = "µg/mL"
qualifier = "="
value_observed = 32

[[record]]
compound = "COC(=O)CC[C@@H](C)[C@H]1CC[C@H]2[C@@H]3[C@H](O)C[C@@H]4C[C@@H](NC(=O)CCNC(=O)CCNC(=O)CCNC(=O)CCN)CC[C@]4(C)[C@H]3C[C@H](O)[C@]12C"
value_units = "µg/mL"
qualifier = "="
value_observed = 64


###

System: MCF7
TEST_NAME: Antiproliferative activity against human MCF7 cells by MTT assay
Type: functional, cell-based
pIC50: −log10 of the molar value.
RESULT_TYPE: pIC50

[[record]]
smiles_structure = "COC(=O)CC[C@@H](C)[C@H]1CC[C@H]2[C@@H]3[C@H](O)C[C@@H]4C[C@@H](NC(=O)CCNC(=O)CCNC(=O)CCNC(=O)CCN)CC[C@]4(C)[C@H]3C[C@H](O)[C@]12C"
qualifier = "="
value_observed = 3.22

[[record]]
smiles_structure = "C[C@H](CCCO)[C@H]1CC[C@H]2[C@@H]3[C@H](O)C[C@@H]4C[C@@H](NC(=O)CCNC(=O)CCNC(=O)CCNC(=O)CCNC(=O)OC(C)(C)C)CC[C@]4(C)[C@H]3C[C@H](O)[C@]12C"
qualifier = "<"
value_observed = 3.00


###

The following compounds are shown together with reported MIC values.
System: Escherichia coli
TEST_NAME: Antibacterial activity at Escherichia coli
Assay type: functional
Where a SMILES comes first, the peptide text is derived from it. The star is where a group is joined. Boc = CC(C)(C)OC(=O)*; OBn = c1ccc(CO*)cc1
RESULT_TYPE: MIC (µg/mL)

[[record]]
compound = "CC(C)(C)OC(=O)NCC(=O)NCC(=O)NCC(=O)NCC(=O)O (Boc-GGGG-OH)"
qualifier = "="
value_observed = 64

[[record]]
compound = "CC(CCC(=O)O)C1CCC2C3C(O)CC4CC(NC(=O)CCNC(=O)CCNC(=O)CCNC(=O)CCNC(=O)OC(C)(C)C)CCC4(C)C3CC(O)C12C (stereo unspecified)"
qualifier = ">"
value_observed = 128

[[record]]
compound = "CN(C)[C@@H]1C(O)=C(C(N)=O)C(=O)[C@@]2(O)C(O)=C3C(=O)c4c(O)cccc4[C@@](C)(O)[C@H]3C[C@@H]12 [TETRACYCLINE]"
qualifier = "="
value_observed = 8

[[record]]
compound = "COC(=O)CC[C@@H](C)[C@H]1CC[C@H]2[C@@H]3[C@H](O)C[C@@H]4C[C@@H](NC(=O)CNC(=O)CNC(=O)CNC(=O)CN)CC[C@]4(C)[C@H]3C[C@H](O)[C@]12C"
qualifier = ">"
value_observed = 128

[[record]]
compound = "C[C@H](CCCO)[C@H]1CC[C@H]2[C@@H]3[C@H](O)C[C@@H]4C[C@@H](NC(=O)CCNC(=O)CCNC(=O)CCNC(=O)CCNC(=O)OC(C)(C)C)CC[C@]4(C)[C@H]3C[C@H](O)[C@]12C"
qualifier = ">"
value_observed = 128

[[record]]
compound = "CC(C)(C)OC(=O)NCC(=O)NCC(=O)NCC(=O)NCC(=O)OCc1ccccc1 (Boc-GGGG-OBn)"
qualifier = "="
value_observed = 128

[[record]]
compound = "C[C@H](CCC(=O)O)[C@H]1CC[C@H]2[C@@H]3[C@H](O)C[C@@H]4C[C@H](O)CC[C@]4(C)[C@H]3C[C@H](O)[C@]12C [CHOLIC ACID]"
qualifier = ">"
value_observed = 128

[[record]]
compound = "CC(C)(C)OC(=O)NCCC(=O)NCCC(=O)NCCC(=O)NCCC(=O)O"
qualifier = "="
value_observed = 64

[[record]]
compound = "NCCC(=O)NCCC(=O)NCCC(=O)NCCC(=O)O"
qualifier = "="
value_observed = 128

[[record]]
compound = "C[C@H](CCC(=O)O)[C@H]1CC[C@H]2[C@@H]3[C@H](O)C[C@@H]4C[C@@H](NC(=O)CCNC(=O)CCNC(=O)CCNC(=O)CCN)CC[C@]4(C)[C@H]3C[C@H](O)[C@]12C"
qualifier = "="
value_observed = 32

[[record]]
compound = "CC(C)(C)OC(=O)NCCC(=O)NCCC(=O)NCCC(=O)NCCC(=O)OCc1ccccc1"
qualifier = "="
value_observed = 128

